src = paper PMC9556845

biological target: CD45 (Homo sapiens, UniProt P08575); experiment: Inhibition of protein tyrosine phosphatase (PTPs) assay, pNPP substrate: CD45; assay type: biochemical; settings: pNPP substrate, pH 6.5, 37°C 60 min, absorbance 405 nm, three independent experiments; read-out: IC50 CD45 (converted)
Sequence (P08575 26-1306): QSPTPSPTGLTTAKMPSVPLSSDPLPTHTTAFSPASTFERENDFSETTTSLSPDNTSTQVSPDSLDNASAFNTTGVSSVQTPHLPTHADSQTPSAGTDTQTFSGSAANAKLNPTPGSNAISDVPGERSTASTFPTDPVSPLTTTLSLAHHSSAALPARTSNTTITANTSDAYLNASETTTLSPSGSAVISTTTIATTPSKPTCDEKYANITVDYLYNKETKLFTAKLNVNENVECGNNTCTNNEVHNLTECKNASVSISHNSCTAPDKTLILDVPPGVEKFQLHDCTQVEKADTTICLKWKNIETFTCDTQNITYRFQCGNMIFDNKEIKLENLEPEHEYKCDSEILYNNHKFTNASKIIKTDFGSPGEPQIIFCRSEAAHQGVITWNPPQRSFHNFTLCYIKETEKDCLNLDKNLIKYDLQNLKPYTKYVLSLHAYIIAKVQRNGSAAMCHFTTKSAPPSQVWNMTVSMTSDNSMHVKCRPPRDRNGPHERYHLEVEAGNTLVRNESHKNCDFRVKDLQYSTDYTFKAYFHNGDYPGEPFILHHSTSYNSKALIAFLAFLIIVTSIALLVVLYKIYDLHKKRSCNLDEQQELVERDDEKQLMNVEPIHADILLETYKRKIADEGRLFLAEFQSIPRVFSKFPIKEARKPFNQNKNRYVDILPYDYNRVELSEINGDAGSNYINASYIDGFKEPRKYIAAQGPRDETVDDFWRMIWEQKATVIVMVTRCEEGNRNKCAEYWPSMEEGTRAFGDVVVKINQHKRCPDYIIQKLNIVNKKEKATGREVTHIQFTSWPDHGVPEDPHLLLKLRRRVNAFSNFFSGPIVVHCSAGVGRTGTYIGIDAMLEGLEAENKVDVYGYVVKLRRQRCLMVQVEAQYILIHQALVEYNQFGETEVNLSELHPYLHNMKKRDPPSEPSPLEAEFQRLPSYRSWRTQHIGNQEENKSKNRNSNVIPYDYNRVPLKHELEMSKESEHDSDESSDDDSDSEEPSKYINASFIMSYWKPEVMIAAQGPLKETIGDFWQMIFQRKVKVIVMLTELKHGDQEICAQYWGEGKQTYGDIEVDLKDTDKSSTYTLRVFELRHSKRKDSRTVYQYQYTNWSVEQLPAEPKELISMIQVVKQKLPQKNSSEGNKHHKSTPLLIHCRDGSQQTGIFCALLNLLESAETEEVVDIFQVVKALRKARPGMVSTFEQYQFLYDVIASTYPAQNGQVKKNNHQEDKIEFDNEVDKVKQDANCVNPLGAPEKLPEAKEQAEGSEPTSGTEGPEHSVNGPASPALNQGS
PARAMETER: IC50

Please report IC50 for the following compound: COc1cc(O)c2c(c1)C1=C[C@H](O)[C@@H](O)C[C@]1(C)OC2=O [Compound 10, 5-hydroxyepialtenuene]
> 342 µM

Please report IC50 for the following compound: COc1cc(O)c2c(c1)C1=C[C@@H](O)[C@@H](O)C[C@]1(C)OC2=O [Compound 11, 5′-epialtenuene]
> 342 µM

Please report IC50 for the following compound: COc1cc(O)c2c(c1)C1C[C@H](O)[C@@H](O)C[C@@]1(C)OC2=O (stereo partly shown) [Compound 9, 3-epidihydroaltenuene A]
> 340 µM

Please report IC50 for the following compound: COc1cc(O)cc(C2=C(C)C[C@@H](O)C2=O)c1 [Compound 14, (+)-nigrosporaol A]
> 427 µM

Please report IC50 for the following compound: `Cc1cc(O)cc2oc(CO)cc(=O)c12`
120 µM

Please report IC50 for the following compound: Cc1cc(=O)c2c(C)cc(O)cc2o1 [Compound 17, 2,5-dimethyl-7-hydroxychromone]
104 µM

Please report IC50 for the following compound: COc1cc(O)c2c(c1)C1=CC(O)C(O)CC1(C)OC2=O (stereo not shown) [Compound 12, 4′-epialtenuene]
> 342 µM

====

target: CD45 (Homo sapiens, UniProt P08575); assay: Inhibition of protein tyrosine phosphatase (PTPs) assay, pNPP substrate: CD45; type: biochemical
Kindly state pIC50 for each of the entries shown.
Expect pIC50 as a plain number equal to -log10 of the molar concentration.

Please report pIC50 for the following molecule: `Cc1cc(O)cc2oc(=O)c3c(O)cc(O)cc3c12`
4.65

Please report pIC50 for the following molecule: `COc1cc(O)c2c(=O)oc3cc(O)cc(C)c3c2c1`
4.14

====

target: TCPTP (Homo sapiens); test: Inhibition of protein tyrosine phosphatase (PTPs) assay, pNPP substrate: TCPTP; format: biochemical; conditions: pNPP substrate, pH 6.5, 37°C 60 min, absorbance 405 nm, three independent experiments; read-out: IC50 TCPTP
Sequence (P17706 whole entry): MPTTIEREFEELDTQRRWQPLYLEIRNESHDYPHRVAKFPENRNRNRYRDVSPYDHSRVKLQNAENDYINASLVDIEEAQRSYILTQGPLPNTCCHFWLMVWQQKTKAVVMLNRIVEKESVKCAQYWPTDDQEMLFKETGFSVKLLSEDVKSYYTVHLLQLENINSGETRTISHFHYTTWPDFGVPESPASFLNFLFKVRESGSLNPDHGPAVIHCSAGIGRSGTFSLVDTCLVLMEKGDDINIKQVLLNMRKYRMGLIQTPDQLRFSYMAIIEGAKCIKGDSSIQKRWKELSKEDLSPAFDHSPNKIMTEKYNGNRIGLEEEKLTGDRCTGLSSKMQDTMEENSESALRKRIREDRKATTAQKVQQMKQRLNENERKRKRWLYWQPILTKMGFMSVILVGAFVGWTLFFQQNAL
Kindly state IC50 for each of the entries shown.

Please report IC50 for the following compound: COc1cc(O)cc(C2=C(C)C[C@@H](O)C2=O)c1 [Compound 14, (+)-nigrosporaol A]
> 427 µM

Please report IC50 for the following compound: Cc1cc(O)cc2oc(CO)cc(=O)c12 [Compound 19]
> 485 µM

Please report IC50 for the following compound: COc1cc(O)c2c(c1)C1=C[C@@H](O)[C@@H](O)C[C@]1(C)OC2=O [Compound 11, 5′-epialtenuene]
> 342 µM

Please report IC50 for the following compound: COc1cc(O)c2c(c1)C1C[C@H](O)[C@@H](O)C[C@@]1(C)OC2=O (stereo partly shown) [Compound 9, 3-epidihydroaltenuene A]
> 340 µM

Please report IC50 for the following compound: COc1cc(O)c2c(c1)C1=C[C@H](O)[C@@H](O)C[C@]1(C)OC2=O [Compound 10, 5-hydroxyepialtenuene]
> 342 µM

Please report IC50 for the following compound: COc1cc(O)c2c(c1)C1=CC(O)C(O)CC1(C)OC2=O (stereo not shown) [Compound 12, 4′-epialtenuene]
> 342 µM

Please report IC50 for the following compound: Cc1cc(=O)c2c(C)cc(O)cc2o1 [Compound 17, 2,5-dimethyl-7-hydroxychromone]
> 526 µM
